Source of measurements: the supplement of paper PMC11451515

cell viability overview
- System: P12-Ichikawa
- PROTOCOL_DESCRIPTION: cell viability relative to DMSO control; higher = less cytotoxic
- PARTICULARS: RPMI 5 mM glucose + 10% FBS; 48 h; 1.71 µM
# value in %; strip the unit string

The following compounds have reported results that may help.
1) CCOC(=O)[C@H](CCc1ccccc1)N[C@@H](C)C(=O)N1CCC[C@H]1C(=O)O :: 111
2) CCC[C@H](N[C@@H](C)C(=O)N1[C@H](C(=O)O)C[C@@H]2CCCC[C@@H]21)C(=O)OCC :: 97.9
3) CN(C/C=C/C#CC(C)(C)C)Cc1cccc2ccccc12 :: 101
4) CCCCCCCc1ccc(CCc2cccc(O)c2C(=O)O)cc1 :: 111
5) CN1CCC(CC1)COC2=CN=C(N=C2)C3=CC(=CC=C3)CN4/N=C(\C=C/C4=O)C5=CC(=CC=C5)C#N :: 111

Param readout= cell viability; system= P12-Ichikawa; entry= CCC(=O)OCC(=O)[C@@]1(OC(=O)CC)[C@@H](C)C[C@H]2[C@@H]3CCC4=CC(=O)C=C[C@]4(C)[C@@]3(F)[C@@H](O)C[C@@]21C ; returns value. 68.6

Hi! What's the reported cell viability for CCN(CC)CCCCNc1nc2cc(Cl)c(Cl)cc2nc1-c1ccc(-c2cccs2)s1 on P12-Ichikawa? 125

Return cell viability measured with P12-Ichikawa given this compound: COc1cc2c(Oc3ccc(NC(=O)C4(C(=O)Nc5ccc(F)cc5)CC4)cc3F)ccnc2cc1OCCCN1CCOCC1 59.5

----------
Measured cell viability of individual entries
- Tested on: NOMO1
- PROTOCOL_DESCRIPTION: cell viability relative to DMSO control; higher = less cytotoxic
- PARTICULARS: HPLM + 10% dialyzed FBS; 48 h; 0.000781 µM
Only the number, expressed in %, is required.

1. CN(C)C(=O)c1ccc([S+](=O)([O-])c2ccc(NC(=O)[C@@](C)(O)C(F)(F)F)c(Cl)c2)cc1 :: 104

Name the recorded cell viability for OC[C@H]1O[C@H]([C@@H](F)[C@@H]1O)N2\C=C/C(=O)NC2=O . 99.1

Sample CN(C/C=C/C#CC(C)(C)C)Cc1cccc2ccccc12 — what was its cell viability? 93.8

Could you tell me which cell viability is on file for CCN(CC)C(=S)SSC(=S)N(CC)CC ? 97.9

Which value of cell viability has been reported for O=C(NC[C@H](O)CN1CCc2ccccc2C1)c1cc(NC2COC2)ncn1 in the records? 93.5

----------
Listed compounds paired with reported cell viability
- System: NOMO1
- PROTOCOL_DESCRIPTION: cell viability relative to DMSO control; higher = less cytotoxic
- PARTICULARS: HPLM + 10% dialyzed FBS; 48 h; 0.0211 µM
Write the answer as a number in %, unit excluded.

1. O=C1Nc2ccc(Cl)cc2[C@@](C#CC2CC2)(C(F)(F)F)O1 :: 85.9

// query cell viability value for entry C\C1=C\C(=O)C2=C(C=CC=C2)C1=O 134

Can you look up the measured cell viability of Oc1ccc(/C=C/c2cc(O)cc(O)c2)cc1 for me? 111

Which value of cell viability has been reported for Cc1ncc(OC[C@@]2(c3cccc(F)c3)C[C@H]2C(=O)Nc2ccc(F)cn2)c(C)n1 in the records? 120

Please report the recorded cell viability for C[N+]1(C)[C@@H]2C[C@@H](OC(=O)[C@H](CO)c3ccccc3)C[C@H]1[C@@H]1O[C@@H]12.[Br-] . 113

Bench note: what cell viability did CC1(C)C(=O)N(CCN2CCC(C(=O)c3ccc(F)cc3)CC2)c2ccccc21 show? 141

If you can, please state the reported cell viability value of CC(C)(C)C(=O)Oc1ccc([S+](=O)([O-])Nc2ccccc2C(=O)NCC(=O)O)cc1 . 122

Which cell viability is reported for this compound? O=C(/C=C/c1c(C(=O)[O-])[nH]c2cc(Cl)cc(Cl)c12)Nc1ccccc1 116

Which cell viability value is on record for CC\1=C(C(=O)N(\C=C1)C2=CC=C(C=C2)C3=NC=CO3)/C4=CC5=CN=C(N)N=C5C=C4 ? 112

Given O=C(NC[C@H](O)CN1CCc2ccccc2C1)c1cc(NC2COC2)ncn1 , state its recorded cell viability. 29.5
